# target.desc: Acyl-protein thioesterase 2 [S122A] (Homo sapiens, UniProt O95372, S122A)
# Sequence (O95372 whole entry S122A): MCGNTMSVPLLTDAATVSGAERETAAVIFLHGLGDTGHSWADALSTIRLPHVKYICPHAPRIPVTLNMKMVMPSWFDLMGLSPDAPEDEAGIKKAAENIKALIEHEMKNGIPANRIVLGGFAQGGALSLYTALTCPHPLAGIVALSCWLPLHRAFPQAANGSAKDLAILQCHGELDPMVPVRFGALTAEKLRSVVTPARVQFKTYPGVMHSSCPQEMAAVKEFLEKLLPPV
# measurement.protocol: Fluorescence Binding Assays
# setup.conditions: 25 °C
readout: IC50 (nM)

>>> readout_value("COc1ccc(N2CCN(C(=O)c3cc4c(s3)-c3ccccc3S(=O)(=O)C4)CC2)cc1 [ML349]")
1000

###

# target.desc: Acyl-protein thioesterase 1 [I75L,S82A,Q83P,R149H,A150R,S151A] (Homo sapiens, UniProt O75608, A150R/I75L/Q83P/R149H/S151A/S82A)
# measurement.protocol: Steady-State Kinetic Assays
# setup.conditions: pH 6.5
readout: Ki (nM)

>>> readout_value("COc1ccc(N2CCN(C(=O)c3cc4c(s3)-c3ccccc3S(=O)(=O)C4)CC2)cc1")
180

###

# target.desc: UniProt O95372
readout: Ki

>>> readout_value("O=C(CN1CCN(C(=O)c2ccco2)CC1)Nc1cc(C(F)(F)F)ccc1Cl")
"> 10 µM"

###

# target.desc: Acyl-protein thioesterase 2 [L78I,A85S,P86Q] (Homo sapiens, UniProt O95372, A85S/L78I/P86Q)
# Sequence (O95372 whole entry L78I/A85S/P86Q): as the sequence (O95372 whole entry S122A) above, with L78I, A85S, P86Q, A122S counted along it
# measurement.protocol: Steady-State Kinetic Assays
# setup.conditions: pH 6.5
readout: Ki

>>> readout_value("O=C(CN1CCN(C(=O)c2ccco2)CC1)Nc1cc(C(F)(F)F)ccc1Cl")
"3.4 µM"
>>> readout_value("COc1ccc(N2CCN(C(=O)c3cc4c(s3)-c3ccccc3S(=O)(=O)C4)CC2)cc1")
"> 10 µM"

###

# target.desc: Acyl-protein thioesterase 1 [I75L,S82A,Q83P] (Homo sapiens, UniProt O75608, I75L/Q83P/S82A)
# Sequence (O75608 whole entry I75L/S82A/Q83P): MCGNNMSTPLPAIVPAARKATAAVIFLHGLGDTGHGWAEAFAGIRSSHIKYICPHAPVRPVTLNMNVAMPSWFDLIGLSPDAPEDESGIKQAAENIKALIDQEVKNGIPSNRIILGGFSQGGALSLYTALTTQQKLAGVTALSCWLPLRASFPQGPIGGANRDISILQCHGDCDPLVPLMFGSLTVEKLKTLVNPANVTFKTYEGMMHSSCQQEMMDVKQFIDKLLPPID
# measurement.protocol: Steady-State Kinetic Assays
# setup.conditions: pH 6.5
pKi: −log10 of the molar value.
readout: pKi

>>> readout_value("COc1ccc(N2CCN(C(=O)c3cc4c(s3)-c3ccccc3S(=O)(=O)C4)CC2)cc1 [ML349]")
5.92

###

# target.desc: Acyl-protein thioesterase 2 [M178L] (Homo sapiens, UniProt O95372, M178L)
# Sequence (O95372 whole entry M178L): as the sequence (O95372 whole entry S122A) above, with A122S, M178L counted along it
# measurement.protocol: Steady-State Kinetic Assays
# setup.conditions: pH 6.5
pKi: −log10 of the molar value.
readout: pKi

>>> readout_value("COc1ccc(N2CCN(C(=O)c3cc4c(s3)-c3ccccc3S(=O)(=O)C4)CC2)cc1 [ML349]")
6.70

Reference source for all entries: BindingDB's records for doi:10.1021/acschembio.6b00720
